B1: Pistol ribozyme (parent)
chain: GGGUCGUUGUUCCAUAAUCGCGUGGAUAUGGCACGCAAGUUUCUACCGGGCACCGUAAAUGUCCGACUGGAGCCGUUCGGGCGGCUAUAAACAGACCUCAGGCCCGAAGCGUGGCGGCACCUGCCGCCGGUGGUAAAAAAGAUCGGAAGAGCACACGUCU

variants of: B1; experiment: aptazyme ON/OFF ratio, guanine; higher = stronger switching; co-transcriptional cleavage with and without guanine
readout-name: aptazyme ON/OFF ratio
Answer with a number only.

[
  {
    "variant-name": "U8G U10C U11G C12G C13A",
    "aptazyme ON/OFF ratio": 1.17
  },
  {
    "variant-name": "U8A G9A U10G C13A",
    "aptazyme ON/OFF ratio": 1.29
  },
  {
    "variant-name": "U8C G9A U10A U11C C12U C13A",
    "aptazyme ON/OFF ratio": 1.13
  },
  {
    "variant-name": "U8G G9U U11A C12U C13G",
    "aptazyme ON/OFF ratio": 1.22
  }
]

Please fill in: aptazyme ON/OFF ratio reported for U7C G9A U10C C12A C13G = 1.17
